- Organism: Rattus norvegicus
- test: Compound was tested for relative potency as NMDA antagonist by determining its ability to inhibit depolarizations induced by 40 uM NMDA in a cortical slice preparation.
- Type: functional
Consider the following compounds and their measured pIC50 readings.
In textbook form, pIC50 equals minus log to base ten of the concentration in mol/L.

Look over these answered cases.
INSERT INTO measurements (compound, quantitative_result) VALUES
  ('O=C(O)C1CC2CC(Cc3nnn[nH]3)CCC2CN1 (stereo in doubt; (+)-4 S)', 4.55),
  ('O=C(O)C1CC2CC(Cc3nnn[nH]3)CCC2CN1 (stereo in doubt; (-)-4 R)', 5.21),
  ('O=C(O)C1CC2CC(Cc3nnn[nH]3)CCC2CN1 (racemic; form 1)', 5.32),
  ('O=C(O)C1CC2CC(Cc3nnn[nH]3)CCC2CN1 (stereo in doubt; (-)-2 S)', 6.09),
  ('O=C(O)C1CC2CC(CP(=O)(O)O)CCC2CN1 (racemic; form 2)', 5.77);

Asked: Can you look up the measured pIC50 of O=C(O)C1CC2CC(CP(=O)(O)O)CCC2CN1 (single isomer, unassigned; (-)) for me?
Given back: 6.66

Asked: Can you handle O=C(O)C1CC2CC(Cc3nnn[nH]3)CCC2CN1 (racemic; form 2) next?
Given back: 5.86

Asked: // query: O=C(O)C1CC2CC(CP(=O)(O)O)CCC2CN1 (stereo in doubt; (+)-1 R)
Given back: 4.48

Asked: Here is the next compound: O=C(O)C1CC2CC(CP(=O)(O)O)CCC2CN1 (racemic; form 1)
Given back: 6.82

###

Examples of compounds with documented pIC50 follow.
- assayed-system: Glutamate NMDA receptor
- test: Inhibition of [3H]-CGS- 19755 binding to rat brain membrane NMDA receptor
In plain terms, pIC50 is the concentration in mol/L turned into minus its base-10 logarithm.

INSERT INTO measurements (compound, assayed_system, quantitative_result) VALUES
  ('O=C(O)C1CC2CC(Cc3nnn[nH]3)CCC2CN1 (stereo in doubt; (+)-4 S)', 'Glutamate NMDA receptor', 5.29);

Asked: May I ask what pIC50 has been recorded for O=C(O)C1CC2CC(Cc3nnn[nH]3)CCC2CN1 (stereo in doubt; (-)-2 S) ?
Given back: 6.38

Asked: Same thing, different compound: O=C(O)C1CC2CC(Cc3nnn[nH]3)CCC2CN1 (racemic; form 2)
Given back: 6.03

Asked: Also O=C(O)C1CC2CC(CP(=O)(O)O)CCC2CN1 (racemic; form 2) , if possible.
Given back: 6.09

Asked: And what about the compound O=C(O)C1CC2CC(CP(=O)(O)O)CCC2CN1 (racemic; form 1) ?
Given back: 7.26

Asked: One more compound: O=C(O)C1CC2CC(CP(=O)(O)O)CCC2CN1 (stereo in doubt; (+)-3 S)
Given back: 5.06

###

- assayed-system: Glutamate NMDA receptor
- test: Inhibition of [3H]-CGS- 19755 binding to rat brain membrane NMDA receptor
Reported log10 IC50 is given for each of the following compounds.
# log10 transformed; quantity=IC50; unit=µM

The cases that follow already have their log10 IC50 on record.
INSERT INTO results (compound, quantitative_result) VALUES
  ('O=C(O)C1CC2CC(CP(=O)(O)O)CCC2CN1 (stereo in doubt; (+)-1 R)', 0.92),
  ('O=C(O)C1CC2CC(Cc3nnn[nH]3)CCC2CN1 (racemic; form 1)', 0.53),
  ('O=C(O)C1CC2CC(Cc3nnn[nH]3)CCC2CN1 (single isomer, unassigned; (+))', 1.35),
  ('O=C(O)C1CC2CC(Cc3nnn[nH]3)CCC2CN1 (stereo in doubt; (-)-4 R)', 0.52),
  ('O=C(O)C1CC2CC(CP(=O)(O)O)CCC2CN1 (stereo in doubt; (-)-3 R)', -0.17);

Asked: Return reported log10 IC50; argument: O=C(O)C1CC2CC(CP(=O)(O)O)CCC2CN1 (single isomer, unassigned; (-))
Given back: -1.60
